Catalogue of compounds with associated viability at 72 h, 1 µM
protocol-details: Cytotoxicity on non-cancerous cell line, CellTiter Glo luminescent cell viability assay, 72 h
Assay type: cell-based, human
condition-summary: human, hTERT-RPE1 cells (non-cancerous cell line); RPE1, pure compounds at 1 µM, 72 h; read-out: Percentage of Cell Viability

>  <compound>
CCC1OC(=O)C(C)C(O)C(C)C(O)C2(C)CC(C)C(OC)(O2)C(C)=CC1C (stereo not shown) [Compound 5]

>  <viability at 72 h, 1 µM>
103%

$$$$
>  <compound>
CCC1OC(=O)C(C)C(OC2CC(C)(OC(C)=O)C(OC(C)=O)C(C)O2)C(C)C(OC2OC(C)CC(N(C)C)C2O)C(C)(OC2CC(N(C)C)C(O)C(C)O2)CC(C)C(=O)C(C)C(O)C1(C)O (stereo not shown) [Compound 3, megalomicin C1]

>  <viability at 72 h, 1 µM>
104%

$$$$
>  <compound>
CC[C@H]1OC(=O)[C@H](C)[C@@H](O)[C@H](C)[C@@H](O)[C@](C)(O)C[C@@H](C)C(=O)[C@H](C)[C@@H](O)[C@H]1C [Compound 1, Erythronolide B]

>  <viability at 72 h, 1 µM>
102%

$$$$
>  <compound>
CC[C@H]1OC(=O)[C@H](C)[C@@H](O)[C@H](C)[C@@H](O)[C@@H](C)C[C@@H](C)C(=O)[C@H](C)[C@@H](O)[C@H]1C [Compound 2, 6-desoxyerythronolide B]

>  <viability at 72 h, 1 µM>
99.1%

$$$$

* * *

Tested on: RPE1 cell line
protocol-details: Cytotoxicity on non-cancerous cell line, CellTiter Glo luminescent cell viability assay, 72 h
Format: cell-based, human
condition-summary: RPE1; 10 and 1 µM (compounds) or 10 and 1 µg/mL (extract)
value-type: toxicity towards healthy cells (in words)

>  <compound>
CCC1OC(=O)C(C)C(O)C(C)C(O)C2(C)CC(C)C(OC)(O2)C(C)=CC1C (stereo not shown) [Compound 5]

>  <value-measured>
No activity

$$$$
>  <compound>
CC[C@H]1OC(=O)[C@H](C)[C@@H](O)[C@H](C)[C@@H](O)[C@@H](C)C[C@@H](C)C(=O)[C@H](C)[C@@H](O)[C@H]1C [Compound 2, 6-desoxyerythronolide B]

>  <value-measured>
No activity

$$$$
>  <compound>
CCC1OC(=O)C(C)C(OC2CC(C)(OC(C)=O)C(OC(C)=O)C(C)O2)C(C)C(OC2OC(C)CC(N(C)C)C2O)C(C)(OC2CC(N(C)C)C(O)C(C)O2)CC(C)C(=O)C(C)C(O)C1(C)O (stereo not shown) [Compound 3, megalomicin C1]

>  <value-measured>
No activity

$$$$
>  <compound>
CC[C@H]1OC(=O)[C@H](C)[C@@H](O)[C@H](C)[C@@H](O)[C@](C)(O)C[C@@H](C)C(=O)[C@H](C)[C@@H](O)[C@H]1C [Compound 1, Erythronolide B]

>  <value-measured>
No activity

$$$$

* * *

protocol-details: Cytotoxicity on non-cancerous cell line, CellTiter Glo luminescent cell viability assay, 72 h
Type: cell-based, human
condition-summary: human, hTERT-RPE1 cells (non-cancerous cell line); RPE1, pure compounds at 10 µM, 72 h; read-out: Percentage of Cell Viability

>  <compound>
CCC1OC(=O)C(C)C(O)C(C)C(O)C2(C)CC(C)C(OC)(O2)C(C)=CC1C (stereo not shown)

>  <viability at 72 h, 10 µM / %>
103

$$$$
>  <compound>
CC[C@H]1OC(=O)[C@H](C)[C@@H](O)[C@H](C)[C@@H](O)[C@](C)(O)C[C@@H](C)C(=O)[C@H](C)[C@@H](O)[C@H]1C [Compound 1, Erythronolide B]

>  <viability at 72 h, 10 µM / %>
97.3

$$$$
>  <compound>
CCC1OC(=O)C(C)C(OC2CC(C)(OC(C)=O)C(OC(C)=O)C(C)O2)C(C)C(OC2OC(C)CC(N(C)C)C2O)C(C)(OC2CC(N(C)C)C(O)C(C)O2)CC(C)C(=O)C(C)C(O)C1(C)O (stereo not shown)

>  <viability at 72 h, 10 µM / %>
104

$$$$
>  <compound>
CC[C@H]1OC(=O)[C@H](C)[C@@H](O)[C@H](C)[C@@H](O)[C@@H](C)C[C@@H](C)C(=O)[C@H](C)[C@@H](O)[C@H]1C [Compound 2, 6-desoxyerythronolide B]

>  <viability at 72 h, 10 µM / %>
95.3

$$$$

* * *

protocol-details: Cytotoxic activity, CellTiter Glo luminescent cell viability assay, 72 h
Assay type: cell-based
condition-summary: human, HCT-116 colorectal carcinoma cells, HCT-116, pure compounds at 10 µM, read-out: Percentage of Cell Viability
Catalogue of molecules with associated viability at 72 h, 10 µM

>  <molecule>
CC[C@H]1OC(=O)[C@H](C)[C@@H](O)[C@H](C)[C@@H](O)[C@](C)(O)C[C@@H](C)C(=O)[C@H](C)[C@@H](O)[C@H]1C [Compound 1, Erythronolide B]

>  <viability at 72 h, 10 µM (%)>
104

$$$$
>  <molecule>
CCC1OC(=O)C(C)C(OC2CC(C)(OC(C)=O)C(OC(C)=O)C(C)O2)C(C)C(OC2OC(C)CC(N(C)C)C2O)C(C)(OC2CC(N(C)C)C(O)C(C)O2)CC(C)C(=O)C(C)C(O)C1(C)O (stereo not shown)

>  <viability at 72 h, 10 µM (%)>
97.3

$$$$
>  <molecule>
CC[C@H]1OC(=O)[C@H](C)[C@@H](O)[C@H](C)[C@@H](O)[C@@H](C)C[C@@H](C)C(=O)[C@H](C)[C@@H](O)[C@H]1C [Compound 2, 6-desoxyerythronolide B]

>  <viability at 72 h, 10 µM (%)>
103

$$$$
>  <molecule>
CCC1OC(=O)C(C)C(O)C(C)C(O)C2(C)CC(C)C(OC)(O2)C(C)=CC1C (stereo not shown)

>  <viability at 72 h, 10 µM (%)>
99.7

$$$$

* * *

Catalogue of molecules with associated viability at 72 h, 10 µM
protocol-details: Cytotoxic activity, CellTiter Glo luminescent cell viability assay, 72 h
Format: cell-based
condition-summary: human, MDA-MB-231 breast carcinoma cells, MDA-MB-231, pure compounds at 10 µM, read-out: Percentage of Cell Viability

>  <molecule>
CCC1OC(=O)C(C)C(OC2CC(C)(OC(C)=O)C(OC(C)=O)C(C)O2)C(C)C(OC2OC(C)CC(N(C)C)C2O)C(C)(OC2CC(N(C)C)C(O)C(C)O2)CC(C)C(=O)C(C)C(O)C1(C)O (stereo not shown)

>  <units-label>
%

>  <viability at 72 h, 10 µM>
98.6

$$$$
>  <molecule>
CC[C@H]1OC(=O)[C@H](C)[C@@H](O)[C@H](C)[C@@H](O)[C@@H](C)C[C@@H](C)C(=O)[C@H](C)[C@@H](O)[C@H]1C [Compound 2, 6-desoxyerythronolide B]

>  <units-label>
%

>  <viability at 72 h, 10 µM>
101

$$$$
>  <molecule>
CCC1OC(=O)C(C)C(O)C(C)C(O)C2(C)CC(C)C(OC)(O2)C(C)=CC1C (stereo not shown)

>  <units-label>
%

>  <viability at 72 h, 10 µM>
99

$$$$
>  <molecule>
CC[C@H]1OC(=O)[C@H](C)[C@@H](O)[C@H](C)[C@@H](O)[C@](C)(O)C[C@@H](C)C(=O)[C@H](C)[C@@H](O)[C@H]1C [Compound 1, Erythronolide B]

>  <units-label>
%

>  <viability at 72 h, 10 µM>
100

$$$$

* * *

protocol-details: Cytotoxic activity, CellTiter Glo luminescent cell viability assay, 72 h
Type: cell-based
condition-summary: human, HCT-116 colorectal carcinoma cells, HCT-116, pure compounds at 1 µM, read-out: Percentage of Cell Viability
Catalogue of compounds with associated viability at 72 h, 1 µM
value-type: viability at 72 h, 1 µM (%)

>  <compound>
CCC1OC(=O)C(C)C(OC2CC(C)(OC(C)=O)C(OC(C)=O)C(C)O2)C(C)C(OC2OC(C)CC(N(C)C)C2O)C(C)(OC2CC(N(C)C)C(O)C(C)O2)CC(C)C(=O)C(C)C(O)C1(C)O (stereo not shown) [Compound 3, megalomicin C1]

>  <value-measured>
100

$$$$
>  <compound>
CCC1OC(=O)C(C)C(O)C(C)C(O)C2(C)CC(C)C(OC)(O2)C(C)=CC1C (stereo not shown) [Compound 5]

>  <value-measured>
99.1

$$$$
>  <compound>
CC[C@H]1OC(=O)[C@H](C)[C@@H](O)[C@H](C)[C@@H](O)[C@@H](C)C[C@@H](C)C(=O)[C@H](C)[C@@H](O)[C@H]1C [Compound 2, 6-desoxyerythronolide B]

>  <value-measured>
101

$$$$
>  <compound>
CC[C@H]1OC(=O)[C@H](C)[C@@H](O)[C@H](C)[C@@H](O)[C@](C)(O)C[C@@H](C)C(=O)[C@H](C)[C@@H](O)[C@H]1C [Compound 1, Erythronolide B]

>  <value-measured>
101

$$$$
